Sourced from paper PMC9169238

System: DU145 – Homo sapiens prostrate carcinoma
procedure-summary: MTT cytotoxicity assay, DU145
Assay type: cell-based
applied-conditions: DU-145, 24 h, read-out: IC50 values (μM) DU145
Give measured log10 IC50 for each item. Keep answers brief.
Log10 applied to IC50; unit prior to transform: µM.

query: What value of log10 IC50 has been recorded for this entry: O=C(Nc1ccccc1)c1ccccc1-n1c(=O)[nH]c2ccccc2c1=O [Compound 3a]
result: 1.17

query: What value of log10 IC50 has been recorded for this entry: Cc1ccc(NC(=O)c2ccccc2-n2c(=O)[nH]c3ccccc3c2=O)cc1 [Compound 3c]
result: 1.06

query: What value of log10 IC50 has been recorded for this entry: COc1cccc2c1C(=O)c1c(O)c3c(c(O)c1C2=O)C[C@@](O)(C(=O)CO)C[C@@H]3O[C@H]1C[C@H](N)[C@H](O)[C@H](C)O1 [Doxorubicin, doxorubicin, reference compound]
result: -0.44

query: What value of log10 IC50 has been recorded for this entry: O=C(Nc1ccccc1)c1ccccc1-n1c(=O)[nH]c2ccc([N+](=O)[O-])cc2c1=O [Compound 3r]
result: 1.19

query: What value of log10 IC50 has been recorded for this entry: O=C(Nc1ccc(F)cc1)c1ccccc1-n1c(=O)[nH]c2ccc(Cl)cc2c1=O [Compound 3o]
result: 0.71

query: What value of log10 IC50 has been recorded for this entry: COc1ccc(NC(=O)c2ccccc2-n2c(=O)[nH]c3ccccc3c2=O)cc1 [Compound 3b]
result: 1.06

query: What value of log10 IC50 has been recorded for this entry: CCNC(=O)c1ccccc1-n1c(=O)[nH]c2ccc(F)cc2c1=O [Compound 3m]
result: 1.29

query: What value of log10 IC50 has been recorded for this entry: CCCCNC(=O)c1cc(Cl)ccc1-n1c(=O)[nH]c2ccccc2c1=O [Compound 3g]
result: 1.27

query: What value of log10 IC50 has been recorded for this entry: O=C(Nc1ccc(F)cc1)c1ccccc1-n1c(=O)[nH]c2ccc(F)cc2c1=O [Compound 3k]
result: 1.06

query: What value of log10 IC50 has been recorded for this entry: CCNC(=O)c1ccccc1-n1c(=O)[nH]c2ccc(Cl)cc2c1=O [Compound 3p]
result: 1.11

query: What value of log10 IC50 has been recorded for this entry: O=c1[nH]cc(F)c(=O)[nH]1 [Compound 5FU, 5-fluorouracil, reference compound]
result: 1.21

query: What value of log10 IC50 has been recorded for this entry: COc1ccc(NC(=O)c2ccccc2-n2c(=O)[nH]c3ccc(F)cc3c2=O)cc1 [Compound 3j]
result: 1.09

###

System: A549 – Homo sapiens lung carcinoma
procedure-summary: MTT cytotoxicity assay, A549
Assay type: cell-based
applied-conditions: A549, 24 h, read-out: IC50 values (μM) A549
Classify: label 1 when IC50 is strictly less than 20 µM; label 0 when IC50 is not.

query: API: query returns whether the compound falls strictly under 20 µM in IC50. Query: O=c1[nH]cc(F)c(=O)[nH]1 [Compound 5FU, 5-fluorouracil, reference compound]
result: label 0

query: API: query returns whether the compound falls strictly under 20 µM in IC50. Query: O=C(Nc1ccccc1)c1ccccc1-n1c(=O)[nH]c2ccc([N+](=O)[O-])cc2c1=O
result: label 1

query: API: query returns whether the compound falls strictly under 20 µM in IC50. Query: COc1cccc2c1C(=O)c1c(O)c3c(c(O)c1C2=O)C[C@@](O)(C(=O)CO)C[C@@H]3O[C@H]1C[C@H](N)[C@H](O)[C@H](C)O1 [Doxorubicin, doxorubicin, reference compound]
result: label 1

query: API: query returns whether the compound falls strictly under 20 µM in IC50. Query: O=C(Nc1ccc(Br)cc1)c1ccccc1-n1c(=O)[nH]c2ccc(F)cc2c1=O
result: label 1

query: API: query returns whether the compound falls strictly under 20 µM in IC50. Query: O=C(Nc1ccc(F)cc1)c1ccccc1-n1c(=O)[nH]c2ccc(F)cc2c1=O
result: label 1

query: API: query returns whether the compound falls strictly under 20 µM in IC50. Query: CCNC(=O)c1ccccc1-n1c(=O)[nH]c2ccccc2c1=O
result: label 0

query: API: query returns whether the compound falls strictly under 20 µM in IC50. Query: O=C(Nc1ccccc1)c1ccccc1-n1c(=O)[nH]c2ccc(Cl)cc2c1=O
result: label 1

###

Test system: DU145 – Homo sapiens prostrate carcinoma
procedure-summary: MTT cytotoxicity assay, DU145
Assay type: cell-based
applied-conditions: DU-145, 24 h, read-out: IC50 values (μM) DU145
Give measured IC50 for each item. Keep answers brief.
Give just the numeric value; µM need not be written.

query: What value of IC50 has been recorded for this entry: O=C(Nc1ccccc1)c1ccccc1-n1c(=O)[nH]c2ccc(Cl)cc2c1=O
result: 10.4

query: What value of IC50 has been recorded for this entry: O=C(Nc1ccc(Br)cc1)c1ccccc1-n1c(=O)[nH]c2ccc(F)cc2c1=O
result: 12.6

query: What value of IC50 has been recorded for this entry: O=C(Nc1ccc(Br)cc1)c1ccccc1-n1c(=O)[nH]c2ccccc2c1=O
result: 12.1

query: What value of IC50 has been recorded for this entry: CCNC(=O)c1ccccc1-n1c(=O)[nH]c2ccccc2c1=O
result: 10.4

query: What value of IC50 has been recorded for this entry: CCCCNC(=O)c1cc(Cl)ccc1-n1c(=O)[nH]c2ccc(Cl)cc2c1=O
result: 9.37

###

Test system: A549 – Homo sapiens lung carcinoma
procedure-summary: MTT cytotoxicity assay, A549
Type: cell-based
applied-conditions: A549, 24 h, read-out: IC50 values (μM) A549
Give measured IC50 for each item. Keep answers brief.
Give just the numeric value; µM need not be written.

query: Query for A549 – Homo sapiens lung carcinoma: what IC50 does the record show for Cc1ccc(NC(=O)c2ccccc2-n2c(=O)[nH]c3ccccc3c2=O)cc1 ?
result: 15.2

query: Query for A549 – Homo sapiens lung carcinoma: what IC50 does the record show for CCNC(=O)c1ccccc1-n1c(=O)[nH]c2ccc(F)cc2c1=O ?
result: 26.3

query: Query for A549 – Homo sapiens lung carcinoma: what IC50 does the record show for CCCCNC(=O)c1cc(Cl)ccc1-n1c(=O)[nH]c2ccccc2c1=O ?
result: 30.4

query: Query for A549 – Homo sapiens lung carcinoma: what IC50 does the record show for CCNC(=O)c1ccccc1-n1c(=O)[nH]c2ccc(Cl)cc2c1=O ?
result: 22.8

query: Query for A549 – Homo sapiens lung carcinoma: what IC50 does the record show for COc1ccc(NC(=O)c2ccccc2-n2c(=O)[nH]c3ccccc3c2=O)cc1 ?
result: 19.5

query: Query for A549 – Homo sapiens lung carcinoma: what IC50 does the record show for O=C(Nc1ccccc1)c1ccccc1-n1c(=O)[nH]c2ccccc2c1=O ?
result: 29.4

query: Query for A549 – Homo sapiens lung carcinoma: what IC50 does the record show for O=C(Nc1ccc(Br)cc1)c1ccccc1-n1c(=O)[nH]c2ccccc2c1=O ?
result: 11.7

query: Query for A549 – Homo sapiens lung carcinoma: what IC50 does the record show for COc1ccc(NC(=O)c2ccccc2-n2c(=O)[nH]c3ccc(F)cc3c2=O)cc1 ?
result: 30.4

query: Query for A549 – Homo sapiens lung carcinoma: what IC50 does the record show for O=C(Nc1ccc(F)cc1)c1ccccc1-n1c(=O)[nH]c2ccc(Cl)cc2c1=O ?
result: 26.3

query: Query for A549 – Homo sapiens lung carcinoma: what IC50 does the record show for CCCCNC(=O)c1cc(Cl)ccc1-n1c(=O)[nH]c2ccc(Cl)cc2c1=O ?
result: 28.7
